// provenance: ChEMBL document CHEMBL4190346

- Test system: HeLa
- run-description: Cytotoxicity against human HeLa cells assessed as reduction in cell viability using compound addition to cell culture cells in log phase of growth and incubated for 48 hrs by MTT assay
- Type: functional, cell-based
- settings: Homo sapiens, HeLa, 48 h; read-out: IC50
Task for the reader: assign each of the following compounds its reported IC50.
Give bare numbers, in µM.

Past entries and their recorded results:
CCC(=O)OCC1=C(C)C[C@H]([C@@H](C)[C@H]2CC[C@H]3[C@@H]4C[C@H]5O[C@]56C(=O)C=CC(=O)[C@]6(C)[C@H]4CC[C@]23C)OC1=O | 6.8
CC1=C(CCl)C(=O)O[C@@H]([C@@H](C)[C@H]2CC[C@H]3[C@@H]4C[C@H]5O[C@]56[C@H](Cl)C=CC(=O)[C@]6(C)[C@H]4CC[C@]23C)C1 | 7.9
CC1=C(COC(=O)C(C)(C)C)C(=O)O[C@@H]([C@@H](C)[C@H]2CC[C@H]3[C@@H]4C[C@H]5O[C@]56C(=O)C=CC(=O)[C@]6(C)[C@H]4CC[C@]23C)C1 | 1.9

# ---- query compound ----
Specify IC50 for `CC(=O)OCC1=C(C)C[C@H]([C@@H](C)[C@H]2CC[C@H]3[C@@H]4C[C@H]5O[C@]56[C@@H](O)C=CC(=O)[C@]6(C)[C@H]4CC[C@]23C)OC1=O` and stop.
10.2
